Listed here are molecules together with their documented H3.1: K36ME3, % of peptide pool.
System: histone modifications in 2102EP cells
Experiment: Mass spectrometry analysis of histone modifications (Mod Spec)
Assay type: cell-based, Human
Details: 2102EP cells; Mod Spec raw data
Give a bare numeral; the unit % is implied.

- MOLECULE: "Clc1ccc(N/N=C(\\c2ccccc2)c2ccccn2)nc1 [JIB-04]"
  RESULT_NUMBER: 20.9267
- MOLECULE: "CCCc1cc(C)[nH]c(=O)c1CNC(=O)c1cc(-c2ccnc(N3CCN(C)CC3)c2)cc2c1cnn2C(C)C [GSK343]"
  RESULT_NUMBER: 20.6064
- MOLECULE: "CN1C(=O)[C@@]23C[C@]4([C@]56C[C@@]78SS[C@@](CO)(C(=O)N7[C@H]5Nc5ccccc56)N(C)C8=O)c5ccccc5N[C@@H]4N2C(=O)[C@]1(CO)SS3 [Chaetocin]"
  RESULT_NUMBER: 21.3142
- MOLECULE: "Cn1cc(CNCC2CCN(c3ncc(C(=O)NO)cn3)CC2)c2ccccc21 [Quisinostat]"
  RESULT_NUMBER: 20.2944
- MOLECULE: "O=C1C(=Cc2cccnc2)C(=O)c2ccccc21 [PRT4165]"
  RESULT_NUMBER: 22.3724

Supply H3.1: K36ME3, % of peptide pool value. Item: Cc1cc(=O)n(C)c2cc(N3C(=O)CC[C@H](NS(=O)(=O)CC(C)C)[C@H]3c3ccc(Cl)cc3)ccc12 [LP99]
20.1942

Supply H3.1: K36ME3, % of peptide pool value. Item: Cc1ncsc1-c1ccc(CNC(=O)[C@@H]2C[C@@H](O)CN2C(=O)[C@@H](NC(=O)COCCOCCOCCNC(=O)C[C@@H]2N=C(c3ccc(Cl)cc3)c3c(sc(C)c3C)-n3c(C)nnc32)C(C)(C)C)cc1 [MZ-1]
20.4408

---

Tested on: histone modifications in 2102EP cells
Test: Mass spectrometry analysis of histone modifications (Mod Spec)
Format: cell-based, Human
Settings: 2102EP cells; Mod Spec raw data
Listed here are compounds together with their documented H3.1: K36ME1, % of peptide pool.
Give a bare numeral; the unit % is implied.

As a guide, the following entries are already answered.
- SMILES_NOTATION: "CCCc1cc(C)[nH]c(=O)c1CNC(=O)c1cc(-c2ccnc(N3CCN(C)CC3)c2)cc2c1cnn2C(C)C"
  ENDPOINT: "H3.1: K36ME1, % of peptide pool"
  RESULT_NUMBER: 13.8902
- SMILES_NOTATION: "Cc1ncsc1-c1ccc(CNC(=O)[C@@H]2C[C@@H](O)CN2C(=O)[C@@H](NC(=O)COCCOCCOCCNC(=O)C[C@@H]2N=C(c3ccc(Cl)cc3)c3c(sc(C)c3C)-n3c(C)nnc32)C(C)(C)C)cc1"
  ENDPOINT: "H3.1: K36ME1, % of peptide pool"
  RESULT_NUMBER: 14.1558
- SMILES_NOTATION: "O=C1C(=Cc2cccnc2)C(=O)c2ccccc21"
  ENDPOINT: "H3.1: K36ME1, % of peptide pool"
  RESULT_NUMBER: 14.9062
- SMILES_NOTATION: "CN1C(=O)[C@@]23C[C@]4([C@]56C[C@@]78SS[C@@](CO)(C(=O)N7[C@H]5Nc5ccccc56)N(C)C8=O)c5ccccc5N[C@@H]4N2C(=O)[C@]1(CO)SS3"
  ENDPOINT: "H3.1: K36ME1, % of peptide pool"
  RESULT_NUMBER: 14.5986
- SMILES_NOTATION: "Clc1ccc(N/N=C(\\c2ccccc2)c2ccccn2)nc1"
  ENDPOINT: "H3.1: K36ME1, % of peptide pool"
  RESULT_NUMBER: 13.2702

Supply H3.1: K36ME1, % of peptide pool value. Item: Cc1cc(=O)n(C)c2cc(N3C(=O)CC[C@H](NS(=O)(=O)CC(C)C)[C@H]3c3ccc(Cl)cc3)ccc12
15.1441

Supply H3.1: K36ME1, % of peptide pool value. Item: Cn1cc(CNCC2CCN(c3ncc(C(=O)NO)cn3)CC2)c2ccccc21
12.4481

---

Test system: histone modifications in 2102EP cells
Assay: Mass spectrometry analysis of histone modifications (Mod Spec)
Format: cell-based, Human
Conditions: 2102EP cells; Mod Spec raw data
ENDPOINT: H3R2UN: K4ME3, % of peptide pool
Reply with the number, then its unit.

- SMILES_NOTATION: "Clc1ccc(N/N=C(\\c2ccccc2)c2ccccn2)nc1"
  ENDPOINT: "H3R2UN: K4ME3, % of peptide pool"
  RESULT: "0.06844%"
- SMILES_NOTATION: "Cc1ncsc1-c1ccc(CNC(=O)[C@@H]2C[C@@H](O)CN2C(=O)[C@@H](NC(=O)COCCOCCOCCNC(=O)C[C@@H]2N=C(c3ccc(Cl)cc3)c3c(sc(C)c3C)-n3c(C)nnc32)C(C)(C)C)cc1"
  ENDPOINT: "H3R2UN: K4ME3, % of peptide pool"
  RESULT: "0.04192%"
- SMILES_NOTATION: "O=C1C(=Cc2cccnc2)C(=O)c2ccccc21"
  ENDPOINT: "H3R2UN: K4ME3, % of peptide pool"
  RESULT: "0.09008%"
- SMILES_NOTATION: "CCCc1cc(C)[nH]c(=O)c1CNC(=O)c1cc(-c2ccnc(N3CCN(C)CC3)c2)cc2c1cnn2C(C)C"
  ENDPOINT: "H3R2UN: K4ME3, % of peptide pool"
  RESULT: "0.0559%"
- SMILES_NOTATION: "CN1C(=O)[C@@]23C[C@]4([C@]56C[C@@]78SS[C@@](CO)(C(=O)N7[C@H]5Nc5ccccc56)N(C)C8=O)c5ccccc5N[C@@H]4N2C(=O)[C@]1(CO)SS3"
  ENDPOINT: "H3R2UN: K4ME3, % of peptide pool"
  RESULT: "0.1482%"

Supply H3R2UN: K4ME3, % of peptide pool value. Item: Cc1cc(=O)n(C)c2cc(N3C(=O)CC[C@H](NS(=O)(=O)CC(C)C)[C@H]3c3ccc(Cl)cc3)ccc12
0.06122%

Supply H3R2UN: K4ME3, % of peptide pool value. Item: Cn1cc(CNCC2CCN(c3ncc(C(=O)NO)cn3)CC2)c2ccccc21
0.05363%

---

Test system: histone modifications in 2102EP cells
Experiment: Mass spectrometry analysis of histone modifications (Mod Spec)
Type: cell-based, Human
Details: 2102EP cells; Mod Spec raw data
ENDPOINT: H3: K9ME3, % of peptide pool (%)
Give a bare numeral; the unit % is implied.

As a guide, the following entries are already answered.
- COMPOUND: "Clc1ccc(N/N=C(\\c2ccccc2)c2ccccn2)nc1 [JIB-04]"
  MEASURED_TARGET: "histone modifications in 2102EP cells"
  MEASUREMENT_UNIT: "%"
  RESULT_NUMBER: 3.1432
- COMPOUND: "O=C1C(=Cc2cccnc2)C(=O)c2ccccc21 [PRT4165]"
  MEASURED_TARGET: "histone modifications in 2102EP cells"
  MEASUREMENT_UNIT: "%"
  RESULT_NUMBER: 3.071
- COMPOUND: "Cn1cc(CNCC2CCN(c3ncc(C(=O)NO)cn3)CC2)c2ccccc21 [Quisinostat]"
  MEASURED_TARGET: "histone modifications in 2102EP cells"
  MEASUREMENT_UNIT: "%"
  RESULT_NUMBER: 2.296
- COMPOUND: "Cc1cc(=O)n(C)c2cc(N3C(=O)CC[C@H](NS(=O)(=O)CC(C)C)[C@H]3c3ccc(Cl)cc3)ccc12 [LP99]"
  MEASURED_TARGET: "histone modifications in 2102EP cells"
  MEASUREMENT_UNIT: "%"
  RESULT_NUMBER: 2.367
- COMPOUND: "CN1C(=O)[C@@]23C[C@]4([C@]56C[C@@]78SS[C@@](CO)(C(=O)N7[C@H]5Nc5ccccc56)N(C)C8=O)c5ccccc5N[C@@H]4N2C(=O)[C@]1(CO)SS3 [Chaetocin]"
  MEASURED_TARGET: "histone modifications in 2102EP cells"
  MEASUREMENT_UNIT: "%"
  RESULT_NUMBER: 2.426

Supply H3: K9ME3, % of peptide pool value. Item: Cc1ncsc1-c1ccc(CNC(=O)[C@@H]2C[C@@H](O)CN2C(=O)[C@@H](NC(=O)COCCOCCOCCNC(=O)C[C@@H]2N=C(c3ccc(Cl)cc3)c3c(sc(C)c3C)-n3c(C)nnc32)C(C)(C)C)cc1 [MZ-1]
2.878

Supply H3: K9ME3, % of peptide pool value. Item: CCCc1cc(C)[nH]c(=O)c1CNC(=O)c1cc(-c2ccnc(N3CCN(C)CC3)c2)cc2c1cnn2C(C)C [GSK343]
3.375
